GI50: recorded values
- Tested on: SF-295
- protocol.text: NCI tumour cell line growth inhibition, 48 h
Activity calls are given as the source filed them. Rule as the data show it: active = GI50 up to about 1.1 µM and inactive = higher.
value.kind: GI50

compound	study.system	value.kind	measured.result
CCCC(O)c1cn(-c2cccc(S(=O)(=O)O)c2)nn1 (stereo not given)	SF-295	GI50	> 100 µM (inactive)
Cc1cc2c(C(C)C)c(O)c(O)c(/C=N\CCO)c2c(O)c1-c1c(C)cc2c(C(C)C)c(O)c(O)c(/C=N/CCO)c2c1O	SF-295	GI50	2.15 µM (inactive)
C=C(C)[C@@H]1C[C@H]2O[C@](O)(C(=C)CC(=O)/C=C(/C)C[C@@H]3OC(=O)[C@]24O[C@@H]34)[C@H]1O	SF-295	GI50	> 100 µM (inactive)
O=c1cc(CN2CCCCC2)nc2ccc3c(O)cc(CN4CCCCC4)nc3n12	SF-295	GI50	> 100 µM (inactive)
Cc1cc2c(cc1Cl)SC(NNc1cnc3ccccc3n1)=NS2(=O)=O	SF-295	GI50	29.9 µM (inactive)
